Please provide measured viability, T/C for the entries that follow.
Tested on: 186277-243-T-J2-PDC complex spheroids, viability
measurement_protocol: Anticancer human tumor 186277-243-T-J2-PDC patient-derived colon adenocarcinoma cell line growth inhibition [RAS]
study_conditions: second compound 1 µM; first compound 0.1 µM; stronger effect = lower value
A number alone suffices; assume %.

Item under review: O=C(c1ccc(F)c(F)c1Nc1ccc(I)cc1F)N1CC(O)([C@@H]2CCCCN2)C1 + C#Cc1c(F)ccc2cc(O)cc(-c3ncc4c(N5CC6CCC(C5)N6)nc(OCC56CCCN5CC(F)C6)nc4c3F)c12 . Reported viability, T/C?
6.3

viability, T/C for CC(C)NCC(C(=O)N1CCN(c2ncnc3c2C(C)CC3O)CC1)c1ccc(Cl)cc1 (stereo not drawn) + C=CC(=O)N1CCN(c2nc(OCC3CCCN3C)nc3c(F)c(-c4nc(N)cc(C)c4C(F)(F)F)c(Cl)cc23)C(C)C1 ?
97.7

Returns the measured viability, T/C for the input molecule. Input: CC(Nc1ccc2c(c1)OCCn1cc(N3C(=O)OCC3C(F)F)nc1-2)C(N)=O (stereo not drawn) + C#Cc1c(F)ccc2cc(O)cc(-c3ncc4c(N5CC6CCC(C5)N6)nc(OCC56CCCN5CC(F)C6)nc4c3F)c12
5.56

---

Test system: 186277-243-T-J2-PDC complex spheroids, viability
measurement_protocol: Anticancer human tumor 186277-243-T-J2-PDC cell line growth inhibition [RAS];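 also: spheroids exposed to compounds for 7 days before viability read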
study_conditions: second compound 0.00949 µM; first compound 0.0949 µM; stronger effect = lower value
measured_metric: viability, T/C

# lookup: viability, T/C of CC1(C)CCC(Nc2ncc(C(F)(F)F)c(-c3c[nH]c4c(P(C)(C)=O)c(C#N)ccc34)n2)CN1 (centres undefined) + CCn1c(-c2cccnc2C(C)OC)c2c3cc(ccc31)N1CCOC(CC(NC(=O)C(C(C)C)N(C)C(=O)C3(F)CCN(C(=O)C#CC(C)(C)N(C)C)CC3)C(=O)N3CCCC(N3)C(=O)OCC(C)(C)C2)C1
56.3%

What value of viability, T/C has been reported for the following compound? CCc1c2c(nc3ccc(O)cc13)-c1cc3c(c(=O)n1C2)COC(=O)[C@]3(O)CC + CCn1c(-c2cc(N3CCN(C)CC3)cnc2C(C)OC)c2c3cc(ccc31)-c1csc(n1)CC(NC(=O)C1CC1C)C(=O)N1CCCC(N1)C(=O)OCC(C)(C)C2
3.6%

Quick one: viability, T/C for CCc1c2c(nc3ccc(O)cc13)-c1cc3c(c(=O)n1C2)COC(=O)[C@]3(O)CC + CCn1c(-c2cccnc2C(C)OC)c2c3cc(ccc31)N1CCOC(CC(NC(=O)C(C(C)C)N(C)C(=O)C3(F)CCN(C(=O)C#CC(C)(C)N(C)C)CC3)C(=O)N3CCCC(N3)C(=O)OCC(C)(C)C2)C1 ?
15.9%

Could you tell me which viability, T/C is on file for CC1(C)CCC(Nc2ncc(C(F)(F)F)c(-c3c[nH]c4c(P(C)(C)=O)c(C#N)ccc34)n2)CN1 (centres undefined) + CCn1c(-c2cc(N3CCN(C)CC3)cnc2C(C)OC)c2c3cc(ccc31)-c1csc(n1)CC(NC(=O)C1CC1C)C(=O)N1CCCC(N1)C(=O)OCC(C)(C)C2 ?
18.2%

---

Tested on: 186277-243-T-J2-PDC complex spheroids, viability
measurement_protocol: Anticancer human tumor 186277-243-T-J2-PDC cell line growth inhibition [RAS];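 also: spheroids exposed to compounds for 7 days before viability read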
study_conditions: second compound 0.316 µM; first compound 0.00949 µM; stronger effect = lower value
measured_metric: viability, T/C

Requested read-out: viability, T/C. Entry: CCc1c2c(nc3ccc(O)cc13)-c1cc3c(c(=O)n1C2)COC(=O)[C@]3(O)CC + C#Cc1c(F)ccc2cc(O)cc(-c3ncc4c(N5CC6CCC(C5)N6)nc(OCC56CCCN5CC(F)C6)nc4c3F)c12
9.89%

Form field: reported viability, T/C of CC1(C)CCC(Nc2ncc(C(F)(F)F)c(-c3c[nH]c4c(P(C)(C)=O)c(C#N)ccc34)n2)CN1 (centres undefined) + C=CC(=O)N1CCN(c2nc(OCC3CCCN3C)nc3c(F)c(-c4nc(N)cc(C)c4C(F)(F)F)c(Cl)cc23)C(C)C1
98.5%

What value of viability, T/C has been reported for the following compound? CC1(C)CCC(Nc2ncc(C(F)(F)F)c(-c3c[nH]c4c(P(C)(C)=O)c(C#N)ccc34)n2)CN1 (centres undefined) + C#Cc1c(F)ccc2cc(O)cc(-c3ncc4c(N5CC6CCC(C5)N6)nc(OCC56CCCN5CC(F)C6)nc4c3F)c12
23%

// viability, T/C lookup, key: CCc1c2c(nc3ccc(O)cc13)-c1cc3c(c(=O)n1C2)COC(=O)[C@]3(O)CC + C=CC(=O)N1CCN(c2nc(OCC3CCCN3C)nc3c(F)c(-c4nc(N)cc(C)c4C(F)(F)F)c(Cl)cc23)C(C)C1
65.5%

Just for reference, PubChem BioAssay AID2060908 is where these values come from.
